The measured values listed here are drawn from the supplement of paper PMC8728848.

- TARGET OR SYSTEM: Fuc(a1-2)[GalNAc(a1-3)]Gal(b1-3)GlcNAc(b1-6)GalNAc
- PROCEDURE DETAILS: glycan array binding signal (z-score within array); higher = stronger binding
- MEASUREMENT CONDITIONS: glycan notation: IUPAC condensed, linker removed
Many of the other results were omitted from the sample, so the strongest signals are more common in it than they were.
READOUT KIND: glycan array binding signal (z-score)

Exercise: What value of glycan array binding signal (z-score) has been reported for the following binder? B936 (Bifidobacterium sp) (protein) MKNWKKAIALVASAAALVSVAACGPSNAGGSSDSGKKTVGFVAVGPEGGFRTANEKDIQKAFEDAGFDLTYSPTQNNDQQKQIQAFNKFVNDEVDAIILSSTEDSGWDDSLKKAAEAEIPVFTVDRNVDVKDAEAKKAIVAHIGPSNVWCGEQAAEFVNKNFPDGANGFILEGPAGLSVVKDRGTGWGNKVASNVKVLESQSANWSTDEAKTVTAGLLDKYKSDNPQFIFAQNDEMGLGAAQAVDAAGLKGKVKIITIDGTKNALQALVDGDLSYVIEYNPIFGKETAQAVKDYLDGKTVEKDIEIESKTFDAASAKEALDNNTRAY
Solution: 0.424
